Origin of measurements: patent US10017527B2

Measurement target: KLK1 (human) (Homo sapiens)
Construct: purchased Prospec
Sequence (P06870 25-262): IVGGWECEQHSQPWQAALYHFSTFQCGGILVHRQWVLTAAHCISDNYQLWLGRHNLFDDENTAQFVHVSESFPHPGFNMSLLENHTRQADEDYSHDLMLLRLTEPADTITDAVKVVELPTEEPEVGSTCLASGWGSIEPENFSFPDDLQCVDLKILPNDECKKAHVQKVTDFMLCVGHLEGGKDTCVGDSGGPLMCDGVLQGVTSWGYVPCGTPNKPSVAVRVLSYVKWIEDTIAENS
Experiment: KLK1 inhibition, fluorogenic substrate H-Pro-Phe-Arg-AMC
Format: biochemical
Measured quantity: IC50

[[record]]
molecule = "CCCCCC(=O)NCCOC(=O)NC(c1ccc(NC(=N)N)cc1)P(=O)(Oc1ccccc1)Oc1ccccc1 (centres unmarked) [Compound 31]"
assay_result = "10 to 250 µM"

[[record]]
molecule = "N=C(N)Nc1ccc(CC(NC(=O)OCc2ccccc2)P(=O)(Oc2ccccc2)Oc2ccccc2)cc1 (centres unmarked) [UPA1, reference compound]"
assay_result = "2.5 to 10 µM"

[[record]]
molecule = "COCCOCCOCCOC(=O)NC(c1ccc(NC(=N)N)cc1)P(=O)(Oc1ccccc1)Oc1ccccc1 (centres unmarked) [Compound 110]"
assay_result = "2.5 to 10 µM"

[[record]]
molecule = "N=C(N)Nc1ccc(C(NC(=O)OCCOCCOCc2cn(CCOCCOCCOCCNC(=O)CN3CCN(CC(=O)O)CCN(CC(=O)O)CCN(CC(=O)O)CC3)nn2)P(=O)(Oc2ccccc2)Oc2ccccc2)cc1 (centres unmarked) [Compound 83]"
assay_result = "2.5 to 10 µM"


Consider the record given below.
The reported KLK1 (human) (Homo sapiens) IC50 of COCCOCCOC(=O)NC(c1ccc(NC(=N)N)cc1)P(=O)(Oc1ccc(NC(C)=O)cc1)Oc1ccc(NC(C)=O)cc1 (centres unmarked) [Compound 114] is 2.5 to 10 µM

====

Measurement target: PlasmaKLK (human plasma) (Homo sapiens)
Construct: purchased Sigma-Aldrich; host or cells: human plasma
Sequence (P03952 391-638 limits assumed): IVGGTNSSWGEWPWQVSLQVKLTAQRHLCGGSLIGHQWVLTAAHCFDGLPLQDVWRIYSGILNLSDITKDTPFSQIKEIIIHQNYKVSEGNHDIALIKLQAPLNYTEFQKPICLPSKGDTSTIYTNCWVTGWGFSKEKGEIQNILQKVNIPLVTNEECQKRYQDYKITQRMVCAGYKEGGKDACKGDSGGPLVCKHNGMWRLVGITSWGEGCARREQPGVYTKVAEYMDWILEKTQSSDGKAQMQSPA
Sequence (P03952 20-390 partner limits assumed): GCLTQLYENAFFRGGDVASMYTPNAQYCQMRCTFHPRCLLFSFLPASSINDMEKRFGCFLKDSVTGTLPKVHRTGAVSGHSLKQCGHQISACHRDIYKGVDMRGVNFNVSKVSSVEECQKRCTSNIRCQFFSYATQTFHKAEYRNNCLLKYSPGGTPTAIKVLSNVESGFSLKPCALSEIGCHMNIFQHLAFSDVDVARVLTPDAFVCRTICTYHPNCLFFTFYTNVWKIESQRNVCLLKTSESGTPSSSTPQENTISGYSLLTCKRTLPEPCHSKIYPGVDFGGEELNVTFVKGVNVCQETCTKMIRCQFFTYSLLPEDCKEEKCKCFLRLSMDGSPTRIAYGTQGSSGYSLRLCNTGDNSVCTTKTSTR
Experiment: Plasma kallikrein inhibition, chromogenic substrate Biophen CS-31(02)
Format: biochemical
pIC50: −log10 of the molar value.
Measured quantity: pIC50

Here are 3 compounds together with their reported answers.
[[record]]
compound = "N=C(N)Nc1ccc(C(NC(=O)OCCOCCOCc2cn(CCOCCOCCOCCNC(=O)CN3CCN(CC(=O)O)CCN(CC(=O)O)CCN(CC(=O)O)CC3)nn2)P(=O)(Oc2ccccc2)Oc2ccccc2)cc1 (stereo not shown)"
assay_result = "3.60 to 5.00"

[[record]]
compound = "N=C(N)Nc1ccc(CC(NC(=O)OCc2ccccc2)P(=O)(Oc2ccccc2)Oc2ccccc2)cc1 (stereo not shown) [UPA1, reference compound]"
assay_result = "5.00 to 5.60"

[[record]]
compound = "COCCOC(=O)NC(c1ccc(NC(=N)N)cc1)P(=O)(Oc1ccccc1)Oc1ccccc1 (stereo not shown) [Compound 29, 2,2,2-trifluoroacetate]"
assay_result = "< 3.60"


// pIC50 lookup, compound = CCCCCC(=O)NCCOC(=O)NC(c1ccc(NC(=N)N)cc1)P(=O)(Oc1ccccc1)Oc1ccccc1 (stereo not shown) , result: 3.60 to 5.00

====

Measurement target: UniProt:Q9Y5Y6
Sequence (Q9Y5Y6 whole entry, species assumed): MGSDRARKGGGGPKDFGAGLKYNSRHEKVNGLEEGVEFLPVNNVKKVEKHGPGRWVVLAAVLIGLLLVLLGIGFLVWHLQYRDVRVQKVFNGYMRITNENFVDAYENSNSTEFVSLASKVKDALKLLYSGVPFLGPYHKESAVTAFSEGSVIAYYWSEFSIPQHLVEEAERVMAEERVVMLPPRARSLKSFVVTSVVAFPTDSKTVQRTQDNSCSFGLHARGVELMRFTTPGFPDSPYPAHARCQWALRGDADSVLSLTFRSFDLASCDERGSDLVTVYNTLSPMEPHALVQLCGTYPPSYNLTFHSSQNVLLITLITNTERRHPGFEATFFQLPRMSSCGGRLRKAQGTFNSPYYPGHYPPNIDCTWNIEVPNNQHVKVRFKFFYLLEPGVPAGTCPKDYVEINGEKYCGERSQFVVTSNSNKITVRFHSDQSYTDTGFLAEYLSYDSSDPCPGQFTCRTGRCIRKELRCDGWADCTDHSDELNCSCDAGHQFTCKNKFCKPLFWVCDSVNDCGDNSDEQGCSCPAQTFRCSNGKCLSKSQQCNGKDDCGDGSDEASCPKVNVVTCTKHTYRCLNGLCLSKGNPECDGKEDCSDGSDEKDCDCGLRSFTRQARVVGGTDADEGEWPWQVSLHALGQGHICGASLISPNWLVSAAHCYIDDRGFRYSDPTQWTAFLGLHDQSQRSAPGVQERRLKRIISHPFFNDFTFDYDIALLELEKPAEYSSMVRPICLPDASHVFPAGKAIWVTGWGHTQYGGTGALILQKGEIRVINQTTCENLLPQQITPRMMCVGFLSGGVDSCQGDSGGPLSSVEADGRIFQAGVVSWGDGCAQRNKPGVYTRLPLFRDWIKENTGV
Experiment: Matriptase inhibition
Format: biochemical
Study conditions: Matriptase; read-out: IC50 MAT
Measured quantity: IC50

[[record]]
compound = "COCCOCCOC(=O)NC(c1ccc(NC(=N)N)cc1)P(=O)(Oc1ccccc1)Oc1ccccc1.O=C(O)C(F)(F)F (centres unmarked) [Compound 28, 2,2,2-trifluoroacetate]"
assay_result = "2500 to 10000 nM"

[[record]]
compound = "CCN(CC)c1ccc2c(-c3ccccc3C(=O)N3CCN(C(=O)CCCCCCCn4cc(COCCOCCOC(=O)NC(c5ccc(NC(=N)N)cc5)P(=O)(Oc5ccccc5)Oc5ccccc5)nn4)CC3)c3ccc(=[N+](CC)CC)cc-3oc2c1 (centres unmarked)"
assay_result = "2500 to 10000 nM"

[[record]]
compound = "C#CCOCCOCCOC(=O)NC(Cc1ccc(NC(=N)N)cc1)P(=O)(Oc1ccccc1)Oc1ccccc1 (centres unmarked) [UPA2, reference compound]"
assay_result = "100 to 1000 nM"

[[record]]
compound = "N=C(N)Nc1ccc(C(NC(=O)OCCOc2ccccc2)P(=O)(Oc2ccccc2)Oc2ccccc2)cc1.O=C(O)C(F)(F)F (centres unmarked) [Compound 30, 2,2,2-trifluoroacetate]"
assay_result = "2500 to 10000 nM"


Consider the record given below.
// IC50 lookup, compound = N=C(N)Nc1ccc(C(NC(=O)OCCOCCOCc2cn(CCOCCOCCOCCNC(=O)CCCC[C@H]3SC[C@H]4NC(=O)N[C@H]43)nn2)P(=O)(Oc2ccccc2)Oc2ccccc2)cc1 (some centres unmarked) , result: 2500 to 10000 nM

====

pIC50 listing for selected molecules.
Measurement target: Neurtophil Elastase(human) (Homo sapiens)
Construct: purchased Enzo-life sciences
Sequence (P08246 30-267): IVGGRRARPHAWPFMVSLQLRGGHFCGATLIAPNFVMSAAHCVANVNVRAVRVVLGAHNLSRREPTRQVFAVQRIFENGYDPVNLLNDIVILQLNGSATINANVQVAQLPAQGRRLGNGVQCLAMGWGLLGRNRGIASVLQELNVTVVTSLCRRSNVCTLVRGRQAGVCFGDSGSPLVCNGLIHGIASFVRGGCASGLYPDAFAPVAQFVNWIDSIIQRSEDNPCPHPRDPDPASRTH
Experiment: Neutrophil elastase inhibition, chromogenic substrate MeOSuc-Ala-Ala-Pro-Val-pNA
Format: biochemical
Study conditions: Tris buffer pH 7.8; read-out: IC50 HNE
pIC50: −log10 of the molar value.

// pIC50 lookup, molecule = CCN(CC)c1ccc2c(-c3ccccc3C(=O)N3CCN(C(=O)CCCCCCCn4cc(COCCOCCOC(=O)NC(c5ccc(NC(=N)N)cc5)P(=O)(Oc5ccccc5)Oc5ccccc5)nn4)CC3)c3ccc(=[N+](CC)CC)cc-3oc2c1 (stereo not drawn) [Compound 133] , result: 3.60 to 5.00

// pIC50 lookup, molecule = COCCOCCOC(=O)NC(c1ccc(NC(=N)N)cc1)P(=O)(Oc1ccccc1)Oc1ccccc1.O=C(O)C(F)(F)F (stereo not drawn) [Compound 28, 2,2,2-trifluoroacetate] , result: < 3.60

// pIC50 lookup, molecule = N=C(N)Nc1ccc(C(NC(=O)OCCOc2ccccc2)P(=O)(Oc2ccccc2)Oc2ccccc2)cc1.O=C(O)C(F)(F)F (stereo not drawn) [Compound 30, 2,2,2-trifluoroacetate] , result: < 3.60

====

Measurement target: Plasmine (human plasma) (Homo sapiens, UniProt P00747)
Construct: purchased Sigma-Aldrich; host or cells: human plasma
Sequence (P00747 581-810 limits assumed): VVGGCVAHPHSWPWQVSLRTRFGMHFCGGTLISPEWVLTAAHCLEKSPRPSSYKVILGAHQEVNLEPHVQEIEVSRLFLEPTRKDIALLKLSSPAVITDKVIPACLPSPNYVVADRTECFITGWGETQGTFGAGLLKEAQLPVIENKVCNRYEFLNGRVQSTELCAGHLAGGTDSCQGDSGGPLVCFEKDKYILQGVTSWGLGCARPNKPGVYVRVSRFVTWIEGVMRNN
Sequence (P00747 98-580 partner limits assumed): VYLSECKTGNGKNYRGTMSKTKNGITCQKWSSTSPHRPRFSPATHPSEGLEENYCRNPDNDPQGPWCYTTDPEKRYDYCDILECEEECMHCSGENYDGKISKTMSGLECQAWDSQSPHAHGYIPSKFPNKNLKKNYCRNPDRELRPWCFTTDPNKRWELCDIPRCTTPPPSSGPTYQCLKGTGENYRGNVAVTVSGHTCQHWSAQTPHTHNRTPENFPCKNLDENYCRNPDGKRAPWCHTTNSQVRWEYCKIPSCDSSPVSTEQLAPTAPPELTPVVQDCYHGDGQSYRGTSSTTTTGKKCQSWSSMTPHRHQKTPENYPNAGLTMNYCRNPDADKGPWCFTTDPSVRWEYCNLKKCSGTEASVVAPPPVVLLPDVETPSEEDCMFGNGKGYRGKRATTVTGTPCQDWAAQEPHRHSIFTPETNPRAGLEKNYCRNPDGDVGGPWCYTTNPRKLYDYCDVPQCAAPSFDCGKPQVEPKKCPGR
Experiment: Plasmin inhibition, chromogenic substrate Biophen CS-21(66)
Type: biochemical
Study conditions: Plasmin; Tris buffer pH 7.4; read-out: IC50 PLM
Measured quantity: IC50

Here are 5 compounds together with their reported answers.
[[record]]
compound = "N=C(N)Nc1ccc(C(NC(=O)OCCOCCOCc2cn(CCOCCOCCOCCNC(=O)CCCC[C@H]3SC[C@H]4NC(=O)N[C@H]43)nn2)P(=O)(Oc2ccccc2)Oc2ccccc2)cc1 (stereo partly drawn)"
assay_result = "10 to 250 µM"

[[record]]
compound = "COCCOCCOC(=O)NC(c1ccc(NC(=N)N)cc1)P(=O)(Oc1ccccc1)Oc1ccccc1.O=C(O)C(F)(F)F (stereo not drawn) [Compound 28, 2,2,2-trifluoroacetate]"
assay_result = "10 to 250 µM"

[[record]]
compound = "CCN(CC)c1ccc2c(-c3ccccc3C(=O)N3CCN(C(=O)CCCCCCCn4cc(COCCOCCOC(=O)NC(c5ccc(NC(=N)N)cc5)P(=O)(Oc5ccccc5)Oc5ccccc5)nn4)CC3)c3ccc(=[N+](CC)CC)cc-3oc2c1 (stereo not drawn)"
assay_result = "10 to 250 µM"

[[record]]
compound = "C#CCOCCOCCOC(=O)NC(Cc1ccc(NC(=N)N)cc1)P(=O)(Oc1ccccc1)Oc1ccccc1 (stereo not drawn) [UPA2, reference compound]"
assay_result = "2.5 to 10 µM"

[[record]]
compound = "N=C(N)Nc1ccc(C(NS(=O)(=O)c2ccccc2)P(=O)(Oc2ccccc2)Oc2ccccc2)cc1 (stereo not drawn)"
assay_result = "2.5 to 10 µM"


// IC50 lookup, compound = N=C(N)Nc1ccc(C(NC(=O)OCCOc2ccccc2)P(=O)(Oc2ccccc2)Oc2ccccc2)cc1.O=C(O)C(F)(F)F (stereo not drawn) [Compound 30, 2,2,2-trifluoroacetate] , result: 10 to 250 µM

====

Measurement target: KLK2 (human) (Homo sapiens, UniProt P20151)
Construct: purchased Viktor Magdolen, TUMunich (TUM), supplied by an academic laboratory
Sequence (P20151 25-261): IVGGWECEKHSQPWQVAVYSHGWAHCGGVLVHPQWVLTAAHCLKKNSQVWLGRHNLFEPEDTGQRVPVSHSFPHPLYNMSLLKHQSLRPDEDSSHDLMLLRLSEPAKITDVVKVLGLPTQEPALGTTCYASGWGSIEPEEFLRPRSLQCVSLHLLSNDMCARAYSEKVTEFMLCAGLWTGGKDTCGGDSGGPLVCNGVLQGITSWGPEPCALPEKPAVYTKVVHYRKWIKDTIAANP
Experiment: KLK2 inhibition, fluorogenic substrate H-Pro-Phe-Arg-AMC
Format: biochemical
pIC50: −log10 of the molar value.
Measured quantity: pIC50

// pIC50 lookup, compound = N=C(N)Nc1ccc(C(NC(=O)OCc2c(F)c(F)c(F)c(F)c2F)P(=O)(Oc2ccccc2)Oc2ccccc2)cc1 (stereo not drawn) [Compound 109] , result: 6.00 to 7.00

// pIC50 lookup, compound = N=C(N)Nc1ccc(C(NC(=O)OCc2ccccc2)P(=O)(Oc2ccccc2)Oc2ccccc2)cc1 (stereo not drawn) [Compound 5a, 2,2,2-trifluoroacetate, reference compound] , result: > 7.00

// pIC50 lookup, compound = N=C(N)Nc1ccc(C(NC(=O)OCCCC(F)(F)F)P(=O)(Oc2ccccc2)Oc2ccccc2)cc1 (stereo not drawn) [Compound 107] , result: 6.00 to 7.00
